Reference for the values: ChEMBL document CHEMBL1148671

# Tested on: Staphylococcus aureus
# protocolSummary: Antibacterial activity against Staphylococcus aureus 29213 by broth microdilution method
# Assay type: functional
# protocolConditions: ATCC29213
MIC listing for selected compounds.
State the answer as a number, implicitly in µg/mL.

Recorded results for 3 compounds are shown here.
CC[C@H]1OC(=O)[C@H](C)C(=O)[C@H](C)[C@@H](O[C@@H]2O[C@H](C)C[C@H](N(C)C)[C@H]2O)[C@](C)(OC)C[C@@H](C)C(=O)[C@H](C)[C@@H]2[C@@H]1OC(=O)N2CCCCc1ccc2ccccc2n1	0.4
CC[C@H]1OC(=O)[C@H](C)C(=O)[C@H](C)[C@@H](O[C@@H]2O[C@H](C)C[C@H](N(C)C)[C@H]2O)[C@](C)(OC)C[C@@H](C)C(=O)[C@H](C)[C@@H]2[C@@H]1OC(=O)N2CCCCn1cnc(-c2cccnc2)c1	0.2
CC[C@H]1OC(=O)[C@H](C)C(=O)[C@H](C)[C@@H](O[C@@H]2O[C@H](C)C[C@H](N(C)C)[C@H]2O)[C@](C)(OC)C[C@@H](C)C(=O)[C@H](C)[C@@H]2[C@@H]1OC(=O)N2CCCCc1cnc2ccccc2c1	0.4

Moving on to the next compound.
Task: Supply measured MIC of CC[C@H]1OC(=O)[C@H](C)C(=O)[C@H](C)[C@@H](O[C@@H]2O[C@H](C)C[C@H](N(C)C)[C@H]2O)[C@](C)(OC)C[C@@H](C)C(=O)[C@H](C)[C@@H]2[C@@H]1OC(=O)N2CCCCc1ccc(-c2cccnc2)s1 in your reply.
Result: 0.2
